Molecular target: kinase panel containing either 359 or 386 distinct kinases
Assay: Selectivity score S10 from competition binding against a panel of kinases
Conditions: compounds at 10 μM; panel of 359 distinct kinases
assay.readout: Kinase specificty: S(10)-359 panel

Here's what some known entries look like.
{"compound": "CC(C)(C)c1cc(NC(=O)Nc2cc(F)c(-c3ccc(N)nc3)cc2F)no1 [Example 20]", "assay.readout": "Kinase specificty: S(10)-359 panel", "observed.measurement": "B (0.1<B≦0.2 nM)"}
{"compound": "CC(C)(C)c1cc(NC(=O)Cc2ccc(-c3ccc(N)nc3)cc2)no1 [Example 18]", "assay.readout": "Kinase specificty: S(10)-359 panel", "observed.measurement": "A (A≦0.1)"}
{"compound": "Cc1nc(N)ccc1-c1ccc(NC(=O)Nc2cc(C(C)(C)C)on2)nc1 [Example 25]", "assay.readout": "Kinase specificty: S(10)-359 panel", "observed.measurement": "A (A≦0.1)"}
{"compound": "Cc1cc(N)ncc1-c1ccc(NC(=O)Nc2cc(C(C)(C)C)on2)nc1 [Example 26]", "assay.readout": "Kinase specificty: S(10)-359 panel", "observed.measurement": "A (A≦0.1)"}
{"compound": "CC(C)(C)c1cc(NC(=O)Nc2ccc(-c3cnc(NCCN4CCOCC4)nc3)cc2F)no1 [Example 59]", "assay.readout": "Kinase specificty: S(10)-359 panel", "observed.measurement": "B (0.1<B≦0.2 nM)"}

// Kinase specificty: S(10)-359 panel value for CC(C)(C)c1cc(NC(=O)Nc2ccc(-c3ccc(N)nc3)c(Cl)c2)no1 [Example 16] : B (0.1<B≦0.2 nM)

// Kinase specificty: S(10)-359 panel value for CC(C)(C)c1cc(NC(=O)Nc2ccc(-c3ccc(N)nc3)s2)no1 [Example 19] : A (A≦0.1)

// Kinase specificty: S(10)-359 panel value for CC(C)(C)c1cc(NC(=O)Nc2ccc(-c3cnc4c(c3)CCC(=O)N4)cc2)no1 [Example 9] : A (A≦0.1)

// Kinase specificty: S(10)-359 panel value for CC(C)(C)c1cc(NC(=O)Nc2ccc(-c3cnc(NCCN4CCOCC4)nc3)cn2)no1 [Example 61] : A (A≦0.1)

// Kinase specificty: S(10)-359 panel value for CC(C)(C)Nc1ncc(-c2ccc(NC(=O)Nc3cc(C(C)(C)C)on3)nc2)cn1 [Example 62] : A (A≦0.1)

// Kinase specificty: S(10)-359 panel value for CC(C)(C)c1cc(NC(=O)Nc2ccc(-c3cnc(N)nc3)cc2)no1 [Example 44] : B (0.1<B≦0.2 nM)

// Kinase specificty: S(10)-359 panel value for CC(C)(C)c1cc(NC(=O)Nc2ccc(-c3cnc(NC4CCOCC4)nc3)cn2)no1 [Example 63] : B (0.1<B≦0.2 nM)

// Kinase specificty: S(10)-359 panel value for CC(C)(C)c1cc(NC(=O)Nc2ccc(-c3cnc(CN4CCOCC4)nc3)cc2)no1 [Example 51] : A (A≦0.1)

###

Target: CSF-1R kinase (Homo sapiens)
Construct: made in house; host or cells: T7 phage display or HEK-293 cells
Sequence (P07333 20-972): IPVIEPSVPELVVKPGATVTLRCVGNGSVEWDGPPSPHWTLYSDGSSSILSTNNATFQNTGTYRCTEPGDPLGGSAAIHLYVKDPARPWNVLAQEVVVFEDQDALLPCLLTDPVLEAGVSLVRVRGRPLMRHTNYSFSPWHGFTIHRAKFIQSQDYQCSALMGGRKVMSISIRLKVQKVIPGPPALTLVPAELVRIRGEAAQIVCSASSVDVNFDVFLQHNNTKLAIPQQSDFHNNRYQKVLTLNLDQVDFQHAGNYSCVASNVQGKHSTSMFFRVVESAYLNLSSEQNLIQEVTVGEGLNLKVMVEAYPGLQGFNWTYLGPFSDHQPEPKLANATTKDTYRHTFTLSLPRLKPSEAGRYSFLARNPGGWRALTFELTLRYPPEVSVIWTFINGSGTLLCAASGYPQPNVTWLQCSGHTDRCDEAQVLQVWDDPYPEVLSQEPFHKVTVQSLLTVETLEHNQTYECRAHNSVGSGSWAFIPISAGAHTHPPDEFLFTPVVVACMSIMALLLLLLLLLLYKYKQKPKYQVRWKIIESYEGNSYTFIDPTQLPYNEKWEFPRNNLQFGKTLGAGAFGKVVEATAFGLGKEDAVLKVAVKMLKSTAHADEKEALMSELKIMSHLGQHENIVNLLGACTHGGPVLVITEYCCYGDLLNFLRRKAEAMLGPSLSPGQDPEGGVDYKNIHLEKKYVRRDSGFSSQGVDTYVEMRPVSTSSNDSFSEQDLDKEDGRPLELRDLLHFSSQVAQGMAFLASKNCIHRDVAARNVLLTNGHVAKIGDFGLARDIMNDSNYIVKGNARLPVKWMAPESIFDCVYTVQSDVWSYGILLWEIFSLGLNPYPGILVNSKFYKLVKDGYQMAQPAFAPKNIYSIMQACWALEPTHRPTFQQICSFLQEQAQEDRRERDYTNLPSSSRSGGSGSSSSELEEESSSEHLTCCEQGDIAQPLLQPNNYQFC
Experiment: Competition binding assay, CSF-1R Kd
pKd: −log10 of the molar value.
Could you please report measured pKd for the items listed next?

// pKd value for COc1cc(-c2ccc(CC(=O)Nc3cc(C4(C)CC4)on3)cc2)cnc1N [Example 164] : ≥ 8.00

// pKd value for CC(C)Nc1ncc(-c2ccc(NC(=O)Cc3cccc(C(F)(F)F)c3)nc2)cn1 [Example 67] : 7.00 to 8.00

// pKd value for CS(=O)(=O)O.Nc1ccc(-c2ccc(CC(=O)Nc3cc(C4(C(F)(F)F)CC4)on3)cc2)c(F)n1 [Example 137, methanesulfonate] : 7.00 to 8.00

// pKd value for CC(C)(C)c1cc(NC(=O)Cc2ccc(-c3ccc(N)nc3F)cc2)no1.CS(=O)(=O)O [Example 95, methanesulfonate] : ≥ 8.00

// pKd value for CC1(c2cc(NC(=O)Cc3ccc(-c4ccc(N)nc4)cc3)no2)CC1.CS(=O)(=O)O [Example 100, methanesulfonate] : ≥ 8.00

Where do these numbers come from? They come from patent US20130035326A1.
